Data provenance is ChEMBL document CHEMBL1135213.

System: REF
Assay: Anti-proliferative activity was evaluated by its ability to inhibit proliferation of rat embryonic fibroblasts (REF)
Format: functional, cell-based
Settings: ref
measured-metric: IC50 (µM)

CC1=C(CC(=O)O)c2cc(F)ccc2C1=Cc1ccc(CO)o1    80
CC1=C(CC(=O)O)c2cc(F)ccc2C1=Cc1ccc(C)o1    10
